# run-description: chemical genetic growth profiling, strain panel (AID 1159580);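 note: tested at 20 µM; growth read once vehicle control cultures reached saturation at 30 °C; 1 = growth at the plate median or of vehicle wells; lower values mean less growth of the strain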
# condition-label: S. cerevisiae deletion strains, growth OD, locus YDL134C, strain PPH21
In all, about 5,500 compounds went through this assay and about 2,000 (36%) were called active. Roughly 18% stayed inconclusive and do not appear here. Cut-off read from the data, not from the text of the source: active = normalized growth mostly below about 0.91 (no sharp cut-off); inconclusive = no clear call, values can overlap the other calls; inactive = mostly above about 0.92. The list shows a part of the results.
// one of active, inactive, no free text

Example entries begin here.
• CCOc1ccc(Cc2nccc3cc(OCC)c(OCC)cc23)cc1OCC = inactive
• N#C/C(=C\c1ccc(O)cc1)C(=O)O = inactive
• COC(=O)Cc1nc(NC(=O)c2ccccc2)sc1C = inactive
• CCOC(=O)c1csc(N/N=C2/CCCc3ccccc32)n1 = active
• CCSC(SCC)[C@H](O)[C@@H](O)[C@H](O)CO = inactive

Next compound, please.
GET /call?item= COc1ccc(Cc2nccc3cc(OC)c(OC)cc23)cc1OC returns the recorded outcome of this test.
inactive

* * *

# run-description: chemical genetic growth profiling, strain panel (AID 1159580);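 note: tested at 20 µM; growth read once vehicle control cultures reached saturation at 30 °C; 1 = growth at the plate median or of vehicle wells; lower values mean less growth of the strain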
# condition-label: S. cerevisiae deletion strains, growth OD, locus YDR001C, strain nth1, hits give low values
The whole screen tested about 5,500 compounds, of which about 2,000 (36%) were called active. Not shown: some 18% with an inconclusive outcome. The list shows a part of the results.
Measured normalized growth by item
Number only, please.

// solved cases for normalized growth follow
- Cn1cnc([N+](=O)[O-])c1Sc1ncnc2nc[nH]c12: 1.02
- CN1CCN(CCCN2c3ccccc3Sc3ccc(Cl)cc32)CC1: 0.993
- COP(=S)(OC)SCn1nnc2ccccc2c1=O: 1.02
- N#Cc1ccc2c(c1)N(CCCN1CCC(O)CC1)c1ccccc1S2: 0.992
- OCCN1CCN(CCCN2c3ccccc3Sc3ccc(Cl)cc32)CC1: 1

I'd like to know its normalized growth. The molecule in question is O=C1c2ccccc2-c2cccc3cccc1c23
0.988

I'd like to know its normalized growth. The molecule in question is C[N+]1(C)C2CC[C@H]1CC(OC(=O)C(O)c1ccccc1)C2 (some centres not stated)
0.993

I'd like to know its normalized growth. The molecule in question is CC(=O)c1ccc2c(c1)N(CCCN(C)C)c1ccccc1S2
0.983

I'd like to know its normalized growth. The molecule in question is CC(=O)N[C@@H](CC(=O)O)C(=O)O
1.01

I'd like to know its normalized growth. The molecule in question is C=C(C)c1cc2cc(C(C)=O)c(O)cc2o1
0.972

I'd like to know its normalized growth. The molecule in question is CCS(=O)(=O)CCn1c([N+](=O)[O-])cnc1C
0.991

I'd like to know its normalized growth. The molecule in question is Cc1cccc(N(C)C(=S)Oc2ccc3ccccc3c2)c1
0.99

* * *

# run-description: chemical genetic growth profiling, strain panel (AID 1159580);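 note: tested at 20 µM; growth read once vehicle control cultures reached saturation at 30 °C; 1 = growth at the plate median or of vehicle wells; lower values mean less growth of the strain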
# condition-label: S. cerevisiae deletion strains, growth OD, locus YGR040W, strain KSS1
Out of some 5,500 compounds screened, about 2,000 (36%) were called active. Roughly 18% stayed inconclusive and do not appear here. Cut-off read from the data, not from the text of the source: active = normalized growth mostly below about 0.91 (no sharp cut-off); inconclusive = no clear call, values can overlap the other calls; inactive = mostly above about 0.92. Some of the results follow.
// one of active, inactive, no free text

Example entries begin here.
• O=C(SCc1c(Cl)cccc1Cl)c1ccc([N+](=O)[O-])o1 = active
• Cc1nc([N+](=O)[O-])cn1CC(=O)c1ccc(Cl)cc1 = inactive
• Cc1c(C(=O)NCCNc2ccc(C(F)(F)F)cc2[N+](=O)[O-])cnn1-c1ccc(F)cc1 = inactive
• N/C(=N/OC(=O)c1ccccc1Cl)c1cccc(CS(=O)(=O)c2ccc(Cl)cc2)c1 = inactive
• Cc1ccc(C(=O)Nc2ccc3ccccc3n2)cc1 = inactive
• Cc1nn(Cc2cccc(C(=O)O/N=C(/N)c3ccc(Cl)cc3)c2)c(C)c1Br = inactive
• Fc1ccc(Nc2nc(-c3ccc(F)c(F)c3)cs2)c(F)c1 = active
• Cc1oc(-c2ccc(Cl)cc2)cc1C(=O)N1CCN(c2ccc(C(F)(F)F)cn2)CC1 = inactive

GET /call?item= O=C(NNc1c(Cl)cccc1Cl)c1ccc([N+](=O)[O-])o1 returns the recorded outcome of this test.
inactive

GET /call?item= O=C1CSC(=Nc2cc(Cl)cc(Cl)c2)N1Cc1cccnc1 returns the recorded outcome of this test.
inactive
